Give MIC for every item shown.
# Test system: C. neoformans clinical isolates
# ASSAY_COMMENT: MIC/MFC of test compounds, microdilution
# Format: cell-based, Cryptococcus neoformans
# MEASUREMENT_CONTEXT: C. neoformans isolate 213; read-out: MIC
Numbers only, in µM.

Field: example entries. Status: answers known.
**Q:** // lookup MIC for O=C1C(=O)c2cccnc2-c2ncccc21.O=C1C(=O)c2cccnc2-c2ncccc21.[Ag+].[O-][Cl+3]([O-])([O-])[O-] [Ag-phendione, [Ag(phendione)2]ClO4]
**A:** 1.56

**Q:** Need MIC, item [Ag+].[O-][Cl+3]([O-])([O-])[O-] [AgClO4, silver perchlorate]
**A:** 1.56

**Q:** What value of MIC has been recorded for this entry: O=C1C(=O)c2cccnc2-c2ncccc21
**A:** 12.5

Alright, here's another compound for you.
**Q:** Which MIC is reported for this compound? O.O.O.O.O=C1C(=O)c2cccnc2-c2ncccc21.O=C1C(=O)c2cccnc2-c2ncccc21.O=C1C(=O)c2cccnc2-c2ncccc21.[Cu+2].[O-][Cl+3]([O-])([O-])[O-].[O-][Cl+3]([O-])([O-])[O-] [Cu-phendione, [Cu(phendione)3](ClO4)2·4H2O]
**A:** 3.125

Source: paper PMC12193833
